Taken from patent US11591284B2.

Test system: isolated rat soleus muscles
test_protocol: Recovery of nerve-stimulated force in isolated rat soleus muscles exposed to sub-maximal tubocurarine
condition_context: 150 μM compound; % change in AUC force compared to AUC after 40 min in tubocurarine, before addition

{"compound": "Cl.NCC(Oc1ccc(F)cc1)C(=O)O (stereo not drawn)", "150 μM % change after addition [%]": "−13"}
{"compound": "C[C@H](Oc1ccc(Br)cc1)C(=O)O", "150 μM % change after addition [%]": 23}
{"compound": "CCC(Oc1ccc(Cl)cc1)C(=O)O (stereo not drawn)", "150 μM % change after addition [%]": 0}
{"compound": "COCC(C)C(Oc1ccc(Br)cc1)C(=O)O (stereo not drawn)", "150 μM % change after addition [%]": 7}
{"compound": "C[C@H](OCc1ccccc1)C(=O)O", "150 μM % change after addition [%]": 1}
{"compound": "CC(C(=O)O)S(=O)(=O)c1ccc(F)cc1 (stereo not drawn)", "150 μM % change after addition [%]": "−8"}
